Target: T1, huUHRF1-PHD(296–367) D334A (human, UniProt Q96T88 296-367, D334A)
T1 sequence (looked up): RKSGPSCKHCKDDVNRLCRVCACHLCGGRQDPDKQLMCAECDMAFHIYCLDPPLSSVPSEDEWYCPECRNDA
Experiment: ITC; 20°C; histone peptides (1–12Y, 1.5–2 mM) injected into huUHRF1-PHD (0.12–0.18 mM); 20 mM Tris pH 7, 150 mM NaCl, 0.5 mM TCEP, 25 µM ZnCl2, 0.1 mM PMSF
Details: both partners purified
Readout Name: Kd

Lab note: ARTKQTARKSTGY (histone H3 N-terminal tail, residues 1-12; tyrosine after residue 12, read from the label '1–12Y'; also called unmodified H3; H3K4me0) [histone H3 peptide (1–12Y), unmodified] gave Kd of > 500 µM
